Provide the reported koff of each item.
Target: T1, purified sIL-5Rα (Asp1-Asn313 of SEQ ID NO: 66) (Homo sapiens (Human), UniProt Q01344 21-333)
T1 construct: also called the purified sIL-5Rα
T1 sequence: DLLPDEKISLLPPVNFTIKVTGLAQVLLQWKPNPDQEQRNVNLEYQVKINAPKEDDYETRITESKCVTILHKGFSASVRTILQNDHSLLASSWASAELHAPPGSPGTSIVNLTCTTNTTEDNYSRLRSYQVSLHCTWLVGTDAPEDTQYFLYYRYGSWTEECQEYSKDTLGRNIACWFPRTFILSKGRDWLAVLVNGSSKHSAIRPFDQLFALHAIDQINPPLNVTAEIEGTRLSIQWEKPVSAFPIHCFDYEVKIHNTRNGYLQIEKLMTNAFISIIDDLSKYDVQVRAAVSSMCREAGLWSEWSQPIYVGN
Assay: BLI (Octet QKe), antibody on AHC sensor, purified sIL-5Rα in solution, 1:1 model
Protocol: Specifically, lx kinetic buffer was prepared by diluting 10× kinetic buffer (ForteBio, 18-1105) in PBS. […] Affinity was calculated with Octet Data Analysis software 11.0 in a 1:1 binding model.
Dear colleague, please return just the value in s⁻¹, with no unit written.

Data request: Look up koff: 5R65.45 (antibody, IgG1, V domains shown, IgG1) VH: QVQLVQSGAEVKKPGSSVKVSCKASGYTFTSYWINWVRQAPGQGLEWIGHIYPNKNENYYNHKFKDKATLTVDKSTNTAYMELSSLRSEDTAVYYCTREYYGRSYYNAMDYWGQGTTLTVSS VL: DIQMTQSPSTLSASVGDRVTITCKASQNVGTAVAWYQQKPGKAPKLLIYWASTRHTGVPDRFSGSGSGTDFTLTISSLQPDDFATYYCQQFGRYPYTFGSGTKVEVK
Data returned: 0.000181

Data request: Another: 5R65 (antibody, V domains shown, IgG1 (variable regions in a pcDNA3.4 vector encoding IgG1 constant regions); also called anti-IL-5Rα humanized antibody 5R65; anti-IL-5Rα antibody (5R65)) VH: QVQLVQSGAEVKKPGSSVKVSCKASGYTFTSYWINWVRQAPGQGLEWIGHIYPNKNENYYNHKFKDKATLTVDKSTNTAYMELSSLRSEDTAVYYCTRDYYGRSYYYAMDYWGQGTTLTVSS VL: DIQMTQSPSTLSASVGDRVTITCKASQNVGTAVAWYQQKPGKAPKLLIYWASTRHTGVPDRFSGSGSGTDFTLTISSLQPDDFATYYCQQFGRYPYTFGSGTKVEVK
Data returned: 0.000329

Data request: Another: 5R65.7 (antibody, IgG1, V domains shown, IgG1) VH: QVQLVQSGAEVKKPGSSVKVSCKASGYTFTSYWINWVRQAPGQGLEWIGHIYPNKNENYYNHKFKDKATLTVDKSTNTAYMELSSLRSEDTAVYYCTREFYGRQYYQAMDYWGQGTTLTVSS VL: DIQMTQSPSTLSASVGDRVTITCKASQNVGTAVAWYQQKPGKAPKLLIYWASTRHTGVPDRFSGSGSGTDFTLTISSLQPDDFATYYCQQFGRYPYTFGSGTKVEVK
Data returned: 0.000147

Data request: Another: 5R65.18 (antibody, IgG1, V domains shown, IgG1) VH: QVQLVQSGAEVKKPGSSVKVSCKASGYTFTSYWINWVRQAPGQGLEWIGHIYPNKNENYYNHKFKDKATLTVDKSTNTAYMELSSLRSEDTAVYYCTREYYGRTYYSAMDYWGQGTTLTVSS VL: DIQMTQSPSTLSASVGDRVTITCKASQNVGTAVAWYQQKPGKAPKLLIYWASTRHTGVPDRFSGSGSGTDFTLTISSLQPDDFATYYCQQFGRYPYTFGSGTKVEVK
Data returned: 0.000133
